I'd appreciate it if you could supply kcat/Km values for the items below.
Substrate: O=CC(O)COP(=O)(O)O
Assay: purified protein
Assay type: biochemical, Bacillus subtilis
Conditions: His-tagged proteins, R5P and glutamine as co-substrates, 50 mM Tris-Cl pH 7.5, 37°C
Answers are plain numbers, in M⁻¹ s⁻¹.

// worked examples, kcat/Km included
protein | units-of-measure | kcat/Km
PLP synthase (Pdx1-His6 + Pdx2) (Bacillus subtilis subsp. subtilis str. 168; H115A/R138A) (protein, complex of C-terminally hexahistidine-tagged Pdx1 with Pdx2-His6; with Pyridoxal 5'-phosphate synthase subunit PdxT) AQTGTERVKRGMAEMQKGGVIMDVINAEQAKIAEEAGAVAVMALERVPADIRAAGGVARMADPTIVEEVMNAVSIPVMAKARIGHIVEARVLEAMGVDYIDESEVLTPADEEFALNKNEYTVPFVCGCRDLGEATRAIAEGASMLRTKGEPGTGNIVEAVRHMRKVNAQVRKVVAMSEDELMTEAKNLGAPYELLLQIKKDGKLPVVNFAAGGVATPADAALMMQLGADGVFVGSGIFKSDNPAKFAKAIVEATTHFTDYKLIAELSKELGTAMKGIEISNLLPEQRMQERGW | M⁻¹ s⁻¹ | 0.333
PLP synthase (Pdx1-His6 + Pdx2) (Bacillus subtilis subsp. subtilis str. 168; K187A) (protein, complex of C-terminally hexahistidine-tagged Pdx1 with Pdx2-His6; with Pyridoxal 5'-phosphate synthase subunit PdxT) AQTGTERVKRGMAEMQKGGVIMDVINAEQAKIAEEAGAVAVMALERVPADIRAAGGVARMADPTIVEEVMNAVSIPVMAKARIGHIVEARVLEAMGVDYIDESEVLTPADEEFHLNKNEYTVPFVCGCRDLGEATRRIAEGASMLRTKGEPGTGNIVEAVRHMRKVNAQVRKVVAMSEDELMTEAANLGAPYELLLQIKKDGKLPVVNFAAGGVATPADAALMMQLGADGVFVGSGIFKSDNPAKFAKAIVEATTHFTDYKLIAELSKELGTAMKGIEISNLLPEQRMQERGW | M⁻¹ s⁻¹ | 1.87
PLP synthase (Pdx1-His6 + Pdx2) (Bacillus subtilis subsp. subtilis str. 168; E105D) (protein, complex of C-terminally hexahistidine-tagged Pdx1 with Pdx2-His6; with Pyridoxal 5'-phosphate synthase subunit PdxT) AQTGTERVKRGMAEMQKGGVIMDVINAEQAKIAEEAGAVAVMALERVPADIRAAGGVARMADPTIVEEVMNAVSIPVMAKARIGHIVEARVLEAMGVDYIDESDVLTPADEEFHLNKNEYTVPFVCGCRDLGEATRRIAEGASMLRTKGEPGTGNIVEAVRHMRKVNAQVRKVVAMSEDELMTEAKNLGAPYELLLQIKKDGKLPVVNFAAGGVATPADAALMMQLGADGVFVGSGIFKSDNPAKFAKAIVEATTHFTDYKLIAELSKELGTAMKGIEISNLLPEQRMQERGW | M⁻¹ s⁻¹ | 0.933
PLP synthase (Pdx1-His6 + Pdx2) (Bacillus subtilis subsp. subtilis str. 168) (protein, complex of C-terminally hexahistidine-tagged Pdx1 with Pdx2-His6; with Pyridoxal 5'-phosphate synthase subunit PdxT) AQTGTERVKRGMAEMQKGGVIMDVINAEQAKIAEEAGAVAVMALERVPADIRAAGGVARMADPTIVEEVMNAVSIPVMAKARIGHIVEARVLEAMGVDYIDESEVLTPADEEFHLNKNEYTVPFVCGCRDLGEATRRIAEGASMLRTKGEPGTGNIVEAVRHMRKVNAQVRKVVAMSEDELMTEAKNLGAPYELLLQIKKDGKLPVVNFAAGGVATPADAALMMQLGADGVFVGSGIFKSDNPAKFAKAIVEATTHFTDYKLIAELSKELGTAMKGIEISNLLPEQRMQERGW | M⁻¹ s⁻¹ | 3.87
PLP synthase (Pdx1-His6 + Pdx2) (Bacillus subtilis subsp. subtilis str. 168; R138A) (protein, complex of C-terminally hexahistidine-tagged Pdx1 with Pdx2-His6; with Pyridoxal 5'-phosphate synthase subunit PdxT) AQTGTERVKRGMAEMQKGGVIMDVINAEQAKIAEEAGAVAVMALERVPADIRAAGGVARMADPTIVEEVMNAVSIPVMAKARIGHIVEARVLEAMGVDYIDESEVLTPADEEFHLNKNEYTVPFVCGCRDLGEATRAIAEGASMLRTKGEPGTGNIVEAVRHMRKVNAQVRKVVAMSEDELMTEAKNLGAPYELLLQIKKDGKLPVVNFAAGGVATPADAALMMQLGADGVFVGSGIFKSDNPAKFAKAIVEATTHFTDYKLIAELSKELGTAMKGIEISNLLPEQRMQERGW | M⁻¹ s⁻¹ | 0.767

We now examine a further protein.
Reported kcat/Km of PLP synthase (Pdx1-His6 + Pdx2) (Bacillus subtilis subsp. subtilis str. 168; H115A) (protein, complex of C-terminally hexahistidine-tagged Pdx1 with Pdx2-His6; with Pyridoxal 5'-phosphate synthase subunit PdxT) AQTGTERVKRGMAEMQKGGVIMDVINAEQAKIAEEAGAVAVMALERVPADIRAAGGVARMADPTIVEEVMNAVSIPVMAKARIGHIVEARVLEAMGVDYIDESEVLTPADEEFALNKNEYTVPFVCGCRDLGEATRRIAEGASMLRTKGEPGTGNIVEAVRHMRKVNAQVRKVVAMSEDELMTEAKNLGAPYELLLQIKKDGKLPVVNFAAGGVATPADAALMMQLGADGVFVGSGIFKSDNPAKFAKAIVEATTHFTDYKLIAELSKELGTAMKGIEISNLLPEQRMQERGW : 0.583
